- TARGET_SYSTEM: Growth hormone secretagogue receptor type 1 (Homo sapiens)
- Sequence (Q92847 whole entry): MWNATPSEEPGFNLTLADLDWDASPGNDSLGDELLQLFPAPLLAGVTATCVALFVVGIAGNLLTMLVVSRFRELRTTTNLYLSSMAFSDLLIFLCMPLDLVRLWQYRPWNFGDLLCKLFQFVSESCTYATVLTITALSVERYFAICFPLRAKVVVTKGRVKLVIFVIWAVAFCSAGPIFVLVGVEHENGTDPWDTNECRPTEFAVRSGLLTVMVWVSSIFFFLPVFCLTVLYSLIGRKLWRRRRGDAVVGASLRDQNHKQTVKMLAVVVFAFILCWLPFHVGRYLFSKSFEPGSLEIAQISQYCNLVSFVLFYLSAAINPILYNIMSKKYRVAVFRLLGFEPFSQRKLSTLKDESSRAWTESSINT
- ASSAY: Displacement of [125I]ghrelin from GHS receptor
REPORTED_ENDPOINT: IC50 (nM)
State just the number; it will be interpreted in nM.

Req: // Input: "O=C(N[C@@H]1COc2cccc(-c3ccc(CO)nc3)c2C1)c1ccc(OCC(F)(F)F)nc1" . Output its IC50 only.
Resp: 200

###

- ASSAY: Displacement of [3H]nitrobenzylthioinosine from adenosine transporter
- Parameters: species or system Homo sapiens
REPORTED_ENDPOINT: pIC50
Note on units: pIC50 is unitless, being -log10 of a concentration expressed in mol/L.

Req: Answer with the recorded pIC50 for the compound listed here: "COc1cnc(-c2cccc3c2C[C@H](NC(=O)c2ccc(COCC(F)(F)F)nc2)CO3)cn1"
Resp: 5.74

###

- TARGET_SYSTEM: UniProt Q12809
- Sequence (Q12809 whole entry): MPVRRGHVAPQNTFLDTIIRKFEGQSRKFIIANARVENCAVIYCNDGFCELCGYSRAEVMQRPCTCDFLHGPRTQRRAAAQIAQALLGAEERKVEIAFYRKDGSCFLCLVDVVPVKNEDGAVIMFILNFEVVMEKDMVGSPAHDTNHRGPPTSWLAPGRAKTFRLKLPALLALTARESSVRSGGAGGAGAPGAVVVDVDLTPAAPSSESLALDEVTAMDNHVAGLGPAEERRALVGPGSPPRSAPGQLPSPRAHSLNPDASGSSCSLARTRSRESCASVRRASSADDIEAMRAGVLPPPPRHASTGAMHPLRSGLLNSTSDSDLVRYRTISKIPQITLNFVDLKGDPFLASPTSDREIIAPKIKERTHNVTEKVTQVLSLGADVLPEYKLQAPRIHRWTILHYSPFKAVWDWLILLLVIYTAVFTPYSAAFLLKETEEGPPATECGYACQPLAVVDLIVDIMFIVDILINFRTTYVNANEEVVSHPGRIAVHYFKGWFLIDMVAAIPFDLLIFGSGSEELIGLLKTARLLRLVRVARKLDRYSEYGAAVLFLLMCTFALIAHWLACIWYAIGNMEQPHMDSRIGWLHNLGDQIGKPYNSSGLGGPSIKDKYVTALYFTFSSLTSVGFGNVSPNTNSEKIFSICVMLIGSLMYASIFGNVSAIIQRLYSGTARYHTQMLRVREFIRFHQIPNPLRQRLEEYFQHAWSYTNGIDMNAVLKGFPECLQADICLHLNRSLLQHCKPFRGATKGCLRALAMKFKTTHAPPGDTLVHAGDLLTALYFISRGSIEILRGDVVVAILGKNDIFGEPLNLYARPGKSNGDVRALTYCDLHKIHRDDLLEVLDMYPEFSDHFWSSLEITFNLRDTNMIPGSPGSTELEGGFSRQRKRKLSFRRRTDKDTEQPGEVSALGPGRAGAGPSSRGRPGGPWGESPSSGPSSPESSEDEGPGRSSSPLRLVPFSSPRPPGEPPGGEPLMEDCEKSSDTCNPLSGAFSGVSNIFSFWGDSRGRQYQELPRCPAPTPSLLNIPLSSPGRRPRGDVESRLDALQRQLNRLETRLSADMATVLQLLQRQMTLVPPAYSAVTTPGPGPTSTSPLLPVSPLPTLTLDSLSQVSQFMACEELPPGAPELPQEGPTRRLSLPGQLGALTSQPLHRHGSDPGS
- ASSAY: Inhibition of human ERG expressed in CHO cells by IonWorks HT assay
Criterion: IC50 strictly less than 8 µM. Met: condition met. Not met: condition not met.

- SMILES_ENTRY: "Cc1ncc(-c2cccc3c2C[C@H](NC(=O)c2ccc(OCC(F)(F)F)nc2)CO3)cn1"
  GROUP_LABEL: "condition not met"

Req: I wonder whether "COc1ncc(-c2cccc3c2C[C@H](NC(=O)c2ccc(COCC(F)(F)F)nc2)CO3)cn1" has IC50 below 8 µM. Can you tell?
Resp: condition not met

Req: Lab note: IC50 threshold 8 µM. Does this compound come in strictly under it? "O=C(N[C@@H]1COc2cccc(-c3ccncc3)c2C1)c1ccc(OCC(F)(F)F)nc1"
Resp: condition met

Req: In the record for "Cc1cnc(-c2cccc3c2C[C@H](NC(=O)c2ccc(OCC(F)(F)F)nc2)CO3)cn1" , is IC50 less than 8 µM?
Resp: condition not met

Req: A record lists "Cc1nn(-c2ccccc2)nc1C(=O)N[C@@H]1COc2cccc(-c3ccncc3)c2C1" . Is its IC50 below 8 µM?
Resp: condition met

Req: Hello, is IC50 of the following compound strictly smaller than 8 µM? "COc1cnc(-c2cccc3c2C[C@H](NC(=O)c2ccc(OCC(F)(F)F)nc2)CO3)cn1"
Resp: condition not met

Req: IC50 under 8 µM? Item: "CCCCOc1ccc(C(=O)N[C@@H]2COc3cccc(N4CCN(C)CC4)c3C2)cc1"
Resp: condition met

###

- ASSAY: Oral bioavailability in Sprague-Dawley rat at 10 umol/kg
- Assay type: ADME, organism-based
- CONDITION_SET: in vivo
REPORTED_ENDPOINT: bioavailability (%)
I only need the number, in %, no unit after it.

- SMILES_ENTRY: "O=C(N[C@@H]1COc2cccc(-c3ccc(CO)nc3)c2C1)c1ccc(OCC(F)(F)F)nc1"
  REPORTED_ENDPOINT: "bioavailability"
  NUMERIC_VALUE: 66.3

Consider now this further compound.
Req: Specify reported bioavailability for the compound shown: "COc1cnc(-c2cccc3c2C[C@H](NC(=O)c2ccc(COCC(F)(F)F)nc2)CO3)cn1"
Resp: 44

###

- System: Liver microsomes
- ASSAY: Intrinsic clearance in rat liver microsomes assessed per ug of protein
- Format: ADME, Microsome
REPORTED_ENDPOINT: CLint

- COMPOUND: "O=C(N[C@@H]1COc2cccc(-c3ccc(CO)nc3)c2C1)c1ccc(OCCOCC(F)(F)F)nc1"
  CLint: "< 10 µL/min/mg"
- COMPOUND: "Cc1cnc(-c2cccc3c2C[C@H](NC(=O)c2ccc(OCC(F)(F)F)nc2)CO3)cn1"
  CLint: "< 10 µL/min/mg"
- COMPOUND: "CN1CCN(c2cccc3c2C[C@H](NC(=O)c2ccc(OCC(F)(F)F)nc2)CO3)CC1"
  CLint: "< 10 µL/min/mg"
- COMPOUND: "COc1cnc(-c2cccc3c2C[C@@H](NC(=O)c2ccc(COCC(F)(F)F)nc2)CO3)cn1"
  CLint: "21 µL/min/mg"
- COMPOUND: "COc1cnc(-c2cccc3c2C[C@H](NC(=O)c2ccc(OCC(F)(F)F)nc2)CO3)cn1"
  CLint: "14 µL/min/mg"
- COMPOUND: "O=C(N[C@@H]1COc2cccc(-c3cncnc3)c2C1)c1ccc(OCCC(F)(F)F)nc1"
  CLint: "38 µL/min/mg"

Req: For the compound "Cc1ccc(-n2nc(C)c(C(=O)N[C@@H]3COc4cccc(N5CCN(C)CC5)c4C3)n2)c(C)c1" , report CLint.
Resp: 9 µL/min/mg

Req: Indicate the recorded CLint value for this compound: "CN1CCN(c2cccc3c2C[C@H](NC(=O)c2ccc(OCCC(F)(F)F)nc2)CO3)CC1"
Resp: < 10 µL/min/mg

Req: Report measured CLint; entry is CC(O)c1ccc(-c2cccc3c2C[C@H](NC(=O)c2ccc(OCCOCC(F)(F)F)nc2)CO3)cn1 (some centres undefined)
Resp: < 10 µL/min/mg

###

- TARGET_SYSTEM: Sodium channel protein type 5 subunit alpha (Homo sapiens)
- Sequence (Q14524 whole entry): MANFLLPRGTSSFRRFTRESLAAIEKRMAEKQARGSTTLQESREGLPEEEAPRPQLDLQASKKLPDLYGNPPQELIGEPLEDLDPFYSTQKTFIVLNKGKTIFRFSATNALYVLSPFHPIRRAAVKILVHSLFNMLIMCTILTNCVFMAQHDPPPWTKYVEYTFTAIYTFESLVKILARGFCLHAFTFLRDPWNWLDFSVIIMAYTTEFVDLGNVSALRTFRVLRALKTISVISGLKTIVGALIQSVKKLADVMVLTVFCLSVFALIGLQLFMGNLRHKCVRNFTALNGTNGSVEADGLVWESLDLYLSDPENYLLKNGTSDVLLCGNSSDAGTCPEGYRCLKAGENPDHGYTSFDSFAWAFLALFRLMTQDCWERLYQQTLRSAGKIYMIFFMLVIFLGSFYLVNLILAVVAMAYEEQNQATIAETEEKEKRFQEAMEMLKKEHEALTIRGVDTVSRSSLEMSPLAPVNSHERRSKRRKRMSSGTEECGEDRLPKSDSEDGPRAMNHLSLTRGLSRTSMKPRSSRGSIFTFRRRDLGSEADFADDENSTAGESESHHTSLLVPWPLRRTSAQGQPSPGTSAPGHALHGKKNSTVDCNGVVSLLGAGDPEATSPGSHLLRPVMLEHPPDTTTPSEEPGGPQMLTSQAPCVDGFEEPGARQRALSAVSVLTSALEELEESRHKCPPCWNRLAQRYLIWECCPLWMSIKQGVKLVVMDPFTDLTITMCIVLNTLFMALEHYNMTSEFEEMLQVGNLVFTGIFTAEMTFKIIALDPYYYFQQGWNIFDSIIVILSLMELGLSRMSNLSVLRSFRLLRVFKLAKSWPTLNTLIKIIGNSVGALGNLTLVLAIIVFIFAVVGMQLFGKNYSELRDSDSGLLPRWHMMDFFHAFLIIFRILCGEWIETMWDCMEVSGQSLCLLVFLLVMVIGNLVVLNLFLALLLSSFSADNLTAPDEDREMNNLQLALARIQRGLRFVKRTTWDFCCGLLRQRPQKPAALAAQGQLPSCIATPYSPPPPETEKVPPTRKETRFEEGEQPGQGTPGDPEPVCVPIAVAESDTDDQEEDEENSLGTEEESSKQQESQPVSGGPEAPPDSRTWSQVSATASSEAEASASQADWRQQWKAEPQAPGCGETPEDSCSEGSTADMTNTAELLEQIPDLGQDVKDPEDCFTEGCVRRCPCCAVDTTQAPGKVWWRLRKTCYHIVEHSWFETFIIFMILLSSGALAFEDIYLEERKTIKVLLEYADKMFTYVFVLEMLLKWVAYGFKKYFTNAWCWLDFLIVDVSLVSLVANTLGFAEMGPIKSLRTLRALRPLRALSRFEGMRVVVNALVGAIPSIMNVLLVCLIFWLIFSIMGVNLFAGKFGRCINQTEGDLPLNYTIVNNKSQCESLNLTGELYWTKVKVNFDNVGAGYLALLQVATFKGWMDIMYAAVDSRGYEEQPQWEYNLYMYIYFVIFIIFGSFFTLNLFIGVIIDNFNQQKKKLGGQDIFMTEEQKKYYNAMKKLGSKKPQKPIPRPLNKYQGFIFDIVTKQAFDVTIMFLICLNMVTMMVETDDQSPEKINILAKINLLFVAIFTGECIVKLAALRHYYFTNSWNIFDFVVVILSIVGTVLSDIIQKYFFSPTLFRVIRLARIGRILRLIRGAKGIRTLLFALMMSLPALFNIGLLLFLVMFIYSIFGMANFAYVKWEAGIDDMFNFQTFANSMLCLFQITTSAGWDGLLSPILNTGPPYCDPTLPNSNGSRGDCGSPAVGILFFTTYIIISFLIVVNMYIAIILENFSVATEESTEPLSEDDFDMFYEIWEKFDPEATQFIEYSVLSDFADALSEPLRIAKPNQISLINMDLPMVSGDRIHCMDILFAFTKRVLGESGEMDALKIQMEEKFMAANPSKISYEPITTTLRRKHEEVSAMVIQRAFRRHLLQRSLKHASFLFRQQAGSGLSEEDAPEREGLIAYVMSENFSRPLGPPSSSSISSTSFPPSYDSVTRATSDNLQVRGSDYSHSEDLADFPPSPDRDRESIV
- ASSAY: Inhibition of human NaV1.5 expressed in CHO cells by IonWorks assay
One threshold, 5 µM, splits the recorded IC50 values: lower ones are fulfilled, equal or higher ones are not fulfilled.

Use these answered entries as a reference point.
- COMPOUND: "O=C(N[C@@H]1COc2cccc(-c3cncnc3)c2C1)c1ccc(OCCC(F)(F)F)nc1"
  TARGET_SYSTEM: "Sodium channel protein type 5 subunit alpha (Homo sapiens)"
  GROUP_LABEL: "fulfilled"
- COMPOUND: "COCCn1nc(C)c(C(=O)N[C@@H]2COc3cccc(-c4ccncc4)c3C2)n1"
  TARGET_SYSTEM: "Sodium channel protein type 5 subunit alpha (Homo sapiens)"
  GROUP_LABEL: "not fulfilled"
- COMPOUND: "O=C(N[C@@H]1COc2cccc(-c3ccc(CO)nc3)c2C1)c1ccc(OCCOCC(F)(F)F)nc1"
  TARGET_SYSTEM: "Sodium channel protein type 5 subunit alpha (Homo sapiens)"
  GROUP_LABEL: "not fulfilled"

Req: Lab log: compare recorded IC50 with 5 µM; is it strictly lower for "COc1ncc(-c2cccc3c2C[C@H](NC(=O)c2ccc(OCCC(F)(F)F)nc2)CO3)cn1" ?
Resp: fulfilled

Req: Dear colleague, could you confirm whether IC50 of "COc1cnc(-c2cccc3c2C[C@H](NC(=O)c2ccc(OCC(F)(F)F)nc2)CO3)cn1" falls below 5 µM? Thanks.
Resp: not fulfilled

###

- ASSAY: Tmax in Sprague-Dawley rat at 10 umol/kg, po
- Format: ADME, organism-based
- CONDITION_SET: in vivo
REPORTED_ENDPOINT: Tmax (h)
Answer with a number only, understood to be in h.

- SMILES_ENTRY: "COc1cnc(-c2cccc3c2C[C@H](NC(=O)c2ccc(COCC(F)(F)F)nc2)CO3)cn1"
  Tmax, h: 2.5

Req: # return recorded Tmax for entry "O=C(N[C@@H]1COc2cccc(-c3ccc(CO)nc3)c2C1)c1ccc(OCC(F)(F)F)nc1"
Resp: 1.5

###

- ASSAY: Solubility of the compound
- Type: physicochemical
REPORTED_ENDPOINT: solubility (µM)
Numeric answer only, unit µM assumed.

- SMILES_ENTRY: "O=C(N[C@@H]1COc2cccc(-c3cncnc3)c2C1)c1ccc(OCCC(F)(F)F)nc1"
  solubility (µM): 23
- SMILES_ENTRY: "COc1ncc(-c2cccc3c2C[C@H](NC(=O)c2ccc(COCC(F)(F)F)nc2)CO3)cn1"
  solubility (µM): 145
- SMILES_ENTRY: "Cc1ncc(-c2cccc3c2C[C@H](NC(=O)c2ccc(OCC(F)(F)F)nc2)CO3)cn1"
  solubility (µM): 6.5
- SMILES_ENTRY: "COc1ncc(-c2cccc3c2C[C@H](NC(=O)c2ccc(OCC(F)(F)F)nc2)CO3)cc1F"
  solubility (µM): 1.1

Moving on to another compound below.
Req: # return recorded solubility for input "O=C(N[C@@H]1COc2cccc(-c3ccncc3)c2C1)c1ccc(OC(F)(F)F)cc1"
Resp: 2

###

- ASSAY: Solubility of the compound
- Type: physicochemical
REPORTED_ENDPOINT: log10(solubility) (log10 of the value in µM)
// do not treat as linear: log10 of solubility, unit µM

Req: Please supply the value of reported log10(solubility) for the item "CN1CCN(c2cccc3c2C[C@H](NC(=O)c2ccc(OC(F)(F)F)cc2)CO3)CC1"
Resp: 1.43

###

The entries below are paired with their reported CLint.
- Tested on: Liver microsomes
- ASSAY: Intrinsic clearance in human liver microsomes assessed per ug of protein
- Assay type: ADME, Microsome
Could you give me the number in µL/min/mg? Just the number is fine.

- SMILES_ENTRY: "COc1cnc(-c2cccc3c2C[C@H](NC(=O)c2ccc(OCC(F)(F)F)nc2)CO3)cn1"
  CLint, µL/min/mg: 14
- SMILES_ENTRY: "O=C(N[C@@H]1COc2cccc(-c3ccncc3)c2C1)c1ccc(OC(F)(F)F)cc1"
  CLint, µL/min/mg: 78

Req: Specify CLint for "Cc1cnc(-c2cccc3c2C[C@H](NC(=O)c2ccc(OCC(F)(F)F)nc2)CO3)cn1" and stop.
Resp: 16

Req: Provide CLint value for the following compound: "COc1ncc(-c2cccc3c2C[C@H](NC(=O)c2ccc(OCC(F)(F)F)nc2)CO3)cc1F"
Resp: 19

# credit: ChEMBL document CHEMBL2069242
